Measured values drawn from paper PMC3594701 for this set.

# procedure.details: Steady-state intracellular
# Assay type: in vivo, human
# details: human, PBMC, oral, GM Ctrough, IC (PBMC); group 1; period 3 (day 49): darunavir/ritonavir 800/100 mg once daily, without raltegravir
parameter: concentration at 24 h (ng/mL)
# value in ng/mL; strip the unit string

Q: Report concentration at 24 h for CC(C)c1nc(CN(C)C(=O)N[C@H](C(=O)N[C@@H](Cc2ccccc2)C[C@H](O)[C@H](Cc2ccccc2)NC(=O)OCc2cncs2)C(C)C)cs1
Result: 478

---

# procedure.details: IC accumulation: ratio of IC drug to drug in plasma
# details: human, PBMC (intracellular)/plasma, oral, 400 mg, GM IC to Plasma Ratio, Ctrough, group 1; period 1 (day 21): raltegravir 400 mg twice daily, without darunavir/ritonavir
parameter: Kp
Please state the value as a number alone, without comment.

Q: Report Kp for Cc1nnc(C(=O)NC(C)(C)c2nc(C(=O)NCc3ccc(F)cc3)c(O)c(=O)n2C)o1
Result: 5.1

---

# procedure.details: IC accumulation: ratio of IC drug to drug in plasma
# details: human, intracellular (PBMC) / plasma, oral, GM IC to Plasma Ratio, Ctrough, group 2; period 2 (day 35): raltegravir 800 mg once daily + darunavir/ritonavir 800/100 mg once daily
parameter: Kp at 24 h
Please state the value as a number alone, without comment.

{"chem.smiles": "CC(C)CN(C[C@@H](O)[C@H](Cc1ccccc1)NC(=O)O[C@H]1CO[C@H]2OCC[C@H]21)S(=O)(=O)c1ccc(N)cc1", "parameter": "Kp at 24 h", "reported.result": 4.3}
{"chem.smiles": "CC(C)c1nc(CN(C)C(=O)N[C@H](C(=O)N[C@@H](Cc2ccccc2)C[C@H](O)[C@H](Cc2ccccc2)NC(=O)OCc2cncs2)C(C)C)cs1", "parameter": "Kp at 24 h", "reported.result": 10.1}

Q: Report Kp at 24 h for Cc1nnc(C(=O)NC(C)(C)c2nc(C(=O)NCc3ccc(F)cc3)c(O)c(=O)n2C)o1
Result: 2.4

---

# procedure.details: IC accumulation: ratio of IC drug to drug in plasma
# details: human, intracellular (PBMC) / plasma, oral, GM IC to Plasma Ratio, AUC, group 1; period 3 (day 49): darunavir/ritonavir 800/100 mg once daily, without raltegravir
compounds and their reported Kp
Please state the value as a number alone, without comment.

{"chem.smiles": "CC(C)CN(C[C@@H](O)[C@H](Cc1ccccc1)NC(=O)O[C@H]1CO[C@H]2OCC[C@H]21)S(=O)(=O)c1ccc(N)cc1", "parameter": "Kp", "reported.result": 5.3}

We next turn to a different compound, shown below.
Q: Report Kp for CC(C)c1nc(CN(C)C(=O)N[C@H](C(=O)N[C@@H](Cc2ccccc2)C[C@H](O)[C@H](Cc2ccccc2)NC(=O)OCc2cncs2)C(C)C)cs1
Result: 9.5

---

# procedure.details: Steady-state plasma pharmacokinetics
# Format: in vivo, human
# details: human, oral, GM Ctrough, group 2, period 3 (day 49): darunavir/ritonavir 800/100 mg once daily, without raltegravir
parameter: concentration at 24 h (ng/mL)
# value in ng/mL; strip the unit string

Q: Report concentration at 24 h for CC(C)c1nc(CN(C)C(=O)N[C@H](C(=O)N[C@@H](Cc2ccccc2)C[C@H](O)[C@H](Cc2ccccc2)NC(=O)OCc2cncs2)C(C)C)cs1
Result: 36

---

# procedure.details: IC accumulation: ratio of IC drug to drug in plasma
# details: human, intracellular (PBMC) / plasma, oral, GM IC to Plasma Ratio, Cmax, group 1; period 2 (day 35): raltegravir 400 mg twice daily + darunavir/ritonavir 800/100 mg once daily
parameter: Kp
Please state the value as a number alone, without comment.

Worked cases, answers included:
{"chem.smiles": "CC(C)CN(C[C@@H](O)[C@H](Cc1ccccc1)NC(=O)O[C@H]1CO[C@H]2OCC[C@H]21)S(=O)(=O)c1ccc(N)cc1", "parameter": "Kp", "reported.result": 6.8}
{"chem.smiles": "CC(C)c1nc(CN(C)C(=O)N[C@H](C(=O)N[C@@H](Cc2ccccc2)C[C@H](O)[C@H](Cc2ccccc2)NC(=O)OCc2cncs2)C(C)C)cs1", "parameter": "Kp", "reported.result": 13.8}

Q: Report Kp for Cc1nnc(C(=O)NC(C)(C)c2nc(C(=O)NCc3ccc(F)cc3)c(O)c(=O)n2C)o1
Result: 5.6

---

# procedure.details: IC accumulation: ratio of IC drug to drug in plasma
# details: human, intracellular (PBMC) / plasma, oral, GM IC to Plasma Ratio, Ctrough, group 1; period 2 (day 35): raltegravir 400 mg twice daily + darunavir/ritonavir 800/100 mg once daily
compounds and their reported Kp
Please state the value as a number alone, without comment.

Worked cases, answers included:
{"chem.smiles": "Cc1nnc(C(=O)NC(C)(C)c2nc(C(=O)NCc3ccc(F)cc3)c(O)c(=O)n2C)o1", "reported.result": 4.5}
{"chem.smiles": "CC(C)CN(C[C@@H](O)[C@H](Cc1ccccc1)NC(=O)O[C@H]1CO[C@H]2OCC[C@H]21)S(=O)(=O)c1ccc(N)cc1", "reported.result": 4.4}

We next turn to a different compound, shown below.
Q: Report Kp for CC(C)c1nc(CN(C)C(=O)N[C@H](C(=O)N[C@@H](Cc2ccccc2)C[C@H](O)[C@H](Cc2ccccc2)NC(=O)OCc2cncs2)C(C)C)cs1
Result: 12

---

# procedure.details: Steady-state plasma pharmacokinetics
# Type: in vivo, human
# details: human, oral, GM Ctrough, group 2, period 1 (day 21): raltegravir 400 mg twice daily, without darunavir/ritonavir
parameter: concentration at 12 h (ng/mL)
# value in ng/mL; strip the unit string

Q: Report concentration at 12 h for Cc1nnc(C(=O)NC(C)(C)c2nc(C(=O)NCc3ccc(F)cc3)c(O)c(=O)n2C)o1 [Raltegravir, raltegravir]
Result: 28

---

# procedure.details: Steady-state plasma pharmacokinetics
# Format: in vivo, human
# details: human, oral, 400 mg, GM Cmax, group 1, period 1 (day 21): raltegravir 400 mg twice daily, without darunavir/ritonavir
parameter: Cmax (ng/mL)
# value in ng/mL; strip the unit string

Q: Report Cmax for Cc1nnc(C(=O)NC(C)(C)c2nc(C(=O)NCc3ccc(F)cc3)c(O)c(=O)n2C)o1
Result: 533

---

compounds and their reported Kp
# procedure.details: IC accumulation: ratio of IC drug to drug in plasma
# details: human, PBMC (intracellular)/plasma, oral, GM IC to Plasma Ratio, Cmax, group 1; period 3 (day 49): darunavir/ritonavir 800/100 mg once daily, without raltegravir
Please state the value as a number alone, without comment.

{"chem.smiles": "CC(C)c1nc(CN(C)C(=O)N[C@H](C(=O)N[C@@H](Cc2ccccc2)C[C@H](O)[C@H](Cc2ccccc2)NC(=O)OCc2cncs2)C(C)C)cs1", "Kp": 13.5}

Q: Report Kp for CC(C)CN(C[C@@H](O)[C@H](Cc1ccccc1)NC(=O)O[C@H]1CO[C@H]2OCC[C@H]21)S(=O)(=O)c1ccc(N)cc1
Result: 6.8

---

# procedure.details: Steady-state intracellular
# Format: in vivo, human
# details: human, PBMC (intracellular), oral, GM Cmax, IC (PBMC); group 1; period 3 (day 49): darunavir/ritonavir 800/100 mg once daily, without raltegravir
parameter: Cmax (ng/mL)
# value in ng/mL; strip the unit string

Q: Report Cmax for CC(C)c1nc(CN(C)C(=O)N[C@H](C(=O)N[C@@H](Cc2ccccc2)C[C@H](O)[C@H](Cc2ccccc2)NC(=O)OCc2cncs2)C(C)C)cs1
Result: 4040

---

# procedure.details: Steady-state plasma pharmacokinetics
# Assay type: in vivo, human
# details: human, GM Ctrough, group 2, period 1 (day 21): raltegravir 400 mg twice daily, without darunavir/ritonavir
parameter: concentration at 12 h (ng/mL)
# value in ng/mL; strip the unit string

Q: Report concentration at 12 h for Cc1nnc(C(=O)NC(C)(C)c2nc(C(=O)NCc3ccc(F)cc3)c(O)c(=O)n2C)o1
Result: 28

---

# procedure.details: Steady-state plasma pharmacokinetics
# Type: in vivo, human
# details: human, GM Ctrough, group 1, period 1 (day 21): raltegravir 400 mg twice daily, without darunavir/ritonavir
parameter: concentration at 12 h (ng/mL)
# value in ng/mL; strip the unit string

Q: Report concentration at 12 h for Cc1nnc(C(=O)NC(C)(C)c2nc(C(=O)NCc3ccc(F)cc3)c(O)c(=O)n2C)o1
Result: 23

---

compounds and their reported concentration at 24 h
# procedure.details: Steady-state plasma pharmacokinetics
# Type: in vivo, human
# details: human, oral, GM Ctrough, group 2, period 2 (day 35): raltegravir 800 mg once daily + darunavir/ritonavir 800/100 mg once daily
Please provide the amount together with its unit, number first.

{"chem.smiles": "CC(C)c1nc(CN(C)C(=O)N[C@H](C(=O)N[C@@H](Cc2ccccc2)C[C@H](O)[C@H](Cc2ccccc2)NC(=O)OCc2cncs2)C(C)C)cs1", "reported.result": "34 ng/mL"}

We next turn to a different compound, shown below.
Q: Report concentration at 24 h for Cc1nnc(C(=O)NC(C)(C)c2nc(C(=O)NCc3ccc(F)cc3)c(O)c(=O)n2C)o1
Result: 11 ng/mL
